Form field: koff (one value per entry).
- ASSAYED_TARGET: T1, human PRLR (Biacore antigen) (human, UniProt P16471 25-234, limits assumed)
- T1 construct: The construct injected over captured antibody is not described (a soluble form is likely); also called huPRLR
- T1 sequence: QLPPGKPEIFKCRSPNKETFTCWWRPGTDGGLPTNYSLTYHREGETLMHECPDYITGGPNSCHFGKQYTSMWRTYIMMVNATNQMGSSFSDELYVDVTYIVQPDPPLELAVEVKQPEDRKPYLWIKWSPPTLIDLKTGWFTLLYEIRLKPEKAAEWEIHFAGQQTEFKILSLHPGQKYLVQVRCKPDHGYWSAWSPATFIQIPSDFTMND
- PROTOCOL_NOTES: SPR Biacore
The figure you give is taken to be in s⁻¹; do not add the unit.

Examples from the recorded data:
Ab11 (antibody, V domains shown, murine monoclonal, isotype G1; also called murine Ab11) VH: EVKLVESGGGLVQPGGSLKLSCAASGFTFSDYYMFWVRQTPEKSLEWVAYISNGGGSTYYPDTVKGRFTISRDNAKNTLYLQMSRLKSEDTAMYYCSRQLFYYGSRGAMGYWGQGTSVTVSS VL: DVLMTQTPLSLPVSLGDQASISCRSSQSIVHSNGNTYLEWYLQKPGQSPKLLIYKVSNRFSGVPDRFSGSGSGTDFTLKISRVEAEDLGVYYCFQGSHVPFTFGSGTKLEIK | 0.0211
Ab17 (antibody, human IgG1, kappa, V domains shown, humanized from Ab6; G1; also called Ab1 HC.1 and Ab1 LC.2a) VH: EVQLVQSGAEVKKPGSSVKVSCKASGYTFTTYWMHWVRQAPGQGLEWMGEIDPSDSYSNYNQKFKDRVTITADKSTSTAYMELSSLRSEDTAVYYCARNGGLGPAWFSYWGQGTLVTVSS VL: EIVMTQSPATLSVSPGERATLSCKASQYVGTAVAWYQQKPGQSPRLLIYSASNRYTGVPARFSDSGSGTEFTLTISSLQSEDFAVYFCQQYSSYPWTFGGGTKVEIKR | 0.00132

[in] I have this binder here, Ab6 (antibody, V domains shown, murine monoclonal, isotype G1; also called murine Ab6) VH: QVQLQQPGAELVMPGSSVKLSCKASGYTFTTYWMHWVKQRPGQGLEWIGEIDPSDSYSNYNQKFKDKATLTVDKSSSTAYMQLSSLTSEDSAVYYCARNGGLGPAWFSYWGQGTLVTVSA VL: DIVMTQSQKFMSTTVGDRVSITCKASQYVGTAVAWYQQKPGQSPKLLIYSASNRYTGVPDRFTDSGSGTDFTLTISNLQSEDLADYFCQQYSSYPWTFGGGTKLEIK , and I need its recorded koff.
[out] 0.000576

[in] Then what about the binder Ab9 (antibody, V domains shown, murine monoclonal, isotype G2b; also called murine Ab9) VH: EVQLQQSGPELVRPGASVKISCKASGYSFTDYNMHWVKQSHGKSLEWIGYIYPYNGGAGYNQKFKSKATMNVGISSSTAYMELRSLTSEDSAVYYCARGDGNYVGDMDYWGQGTSVTVSS VL: DIQMTQSPASLSASVGETVTITCRASENIYSYLAWYQQKQGKSPQLLVYNAKTLAEGVPSRFSGSGSGTQFSLKINSLQPEDFGSYYCQHHSGTPFTFGSGTKLEIK ?
[out] 0.000131

Recorded values, source patent US20170022281A1.
